Origin of values: patent US20260138961A1

Target: POLγA:R309C (Homo sapiens, UniProt P54098, R309C)
Test: DNA polymerization assay, POLγA:R309C mutant
Type: biochemical
Conditions: stimulation of polymerase activity, primed M13mp18 ssDNA, 37° C. 2 hours
Cut-off 5 µM on AC50: below means 1 (yes), at or above means 0 (no).

> print(dat)
                           substance.smiles                        measurement.target  group.label
1  Cc1cc(S(=O)(=O)Nc2cccc(-c3ncco3)c2)c(C)cc1Cl  POLγA:R309C (Homo sapiens, UniProt P54098, R309C)      1 (yes)
2  Cc1cc(S(=O)(=O)Nc2cccc(C(=O)N(C)C)c2)c(C)cc1Cl  POLγA:R309C (Homo sapiens, UniProt P54098, R309C)      1 (yes)
3  Cc1cc(S(=O)(=O)Nc2cc(F)cc(C(=O)N3CCC[C@H]3C)c2)c(C)cc1Cl  POLγA:R309C (Homo sapiens, UniProt P54098, R309C)      1 (yes)

// next entry
Dear reviewer, please state whether Cc1cnc(-c2cc(NS(=O)(=O)c3cc(C)c(Cl)cc3C)ccc2C)s1 has AC50 strictly beneath 5 µM. 0 (no)

###

Molecular target: POLγ W748S + E1143G (Homo sapiens, UniProt P54098, E1143G/W748S)
Test: DNA polymerization assay, W748S + E1143G mutant
Format: biochemical
Conditions: stimulation of polymerase activity, primed M13mp18 ssDNA, 37° C. 2 hours
A collection of molecules and their measured AC50

> print(dat)
                           substance.smiles  property    result
1  Cc1cnc(-c2ccc(C)c(NS(=O)(=O)c3cc(C)c(Cl)cc3C)c2)s1      AC50  > 100 µM
2  Cc1cc(S(=O)(=O)Nc2csc(-c3ccncc3)n2)c(C)cc1Cl      AC50    0.3 µM
3  Cc1cc(S(=O)(=O)Nc2ccc(F)c(-c3nccs3)c2)c(C)cc1Cl      AC50  > 100 µM
4  Cc1cc(S(=O)(=O)Nc2csc(C(=O)N(CC(N)=O)C3CCCC3)n2)c(C)cc1Cl      AC50  > 100 µM
5  Cc1cc(S(=O)(=O)Nc2csc(-c3ccn(C)n3)n2)c(C)cc1Cl      AC50   > 10 µM

Which AC50 value belongs to Cc1cc(S(=O)(=O)Nc2csc(-c3ccccc3)n2)c(C)cc1Cl ? 0.7 µM

Which AC50 value belongs to Cc1cc(S(=O)(=O)Nc2cc(F)cc(-c3nccs3)c2)c(C)cc1Cl ? > 100 µM

Which AC50 value belongs to Cc1cc(S(=O)(=O)Nc2csc(C(=O)N(CC(N)=O)C3CCCCC3)n2)c(C)cc1Cl ? > 10 µM

Which AC50 value belongs to Cc1cc(S(=O)(=O)Nc2cn(Cc3ccccc3)cn2)c(C)cc1Cl ? > 100 µM

###

Biological target: POLγA:A467T (Homo sapiens, UniProt P54098, A467T)
Assay: DNA polymerization assay, POLγA:A467T mutant
Assay type: biochemical
Settings: stimulation of polymerase activity, primed M13mp18 ssDNA, 37° C. 2 hours; read-out: A467T AC50
Property: AC50 (µM)
Give just the number in µM; leave the unit off.

> print(dat)
                           substance.smiles  unit.label  numeric.value
1  Cc1cc(S(=O)(=O)Nc2cccc(C(=O)N3CCc4cn[nH]c4C3)c2)c(C)cc1Cl          µM             28

Next compound, AC50 to be filled in.
Query AC50 on POLγA:A467T (Homo sapiens, UniProt P54098, A467T) for O=S(=O)(Nc1csc(-c2ccccc2)n1)c1ccccc1Cl 8

###

A collection of molecules and their measured log10 of AC50
Biological target: POLγA:R309C (Homo sapiens, UniProt P54098, R309C)
Sequence (P54098 1-1239 R309C): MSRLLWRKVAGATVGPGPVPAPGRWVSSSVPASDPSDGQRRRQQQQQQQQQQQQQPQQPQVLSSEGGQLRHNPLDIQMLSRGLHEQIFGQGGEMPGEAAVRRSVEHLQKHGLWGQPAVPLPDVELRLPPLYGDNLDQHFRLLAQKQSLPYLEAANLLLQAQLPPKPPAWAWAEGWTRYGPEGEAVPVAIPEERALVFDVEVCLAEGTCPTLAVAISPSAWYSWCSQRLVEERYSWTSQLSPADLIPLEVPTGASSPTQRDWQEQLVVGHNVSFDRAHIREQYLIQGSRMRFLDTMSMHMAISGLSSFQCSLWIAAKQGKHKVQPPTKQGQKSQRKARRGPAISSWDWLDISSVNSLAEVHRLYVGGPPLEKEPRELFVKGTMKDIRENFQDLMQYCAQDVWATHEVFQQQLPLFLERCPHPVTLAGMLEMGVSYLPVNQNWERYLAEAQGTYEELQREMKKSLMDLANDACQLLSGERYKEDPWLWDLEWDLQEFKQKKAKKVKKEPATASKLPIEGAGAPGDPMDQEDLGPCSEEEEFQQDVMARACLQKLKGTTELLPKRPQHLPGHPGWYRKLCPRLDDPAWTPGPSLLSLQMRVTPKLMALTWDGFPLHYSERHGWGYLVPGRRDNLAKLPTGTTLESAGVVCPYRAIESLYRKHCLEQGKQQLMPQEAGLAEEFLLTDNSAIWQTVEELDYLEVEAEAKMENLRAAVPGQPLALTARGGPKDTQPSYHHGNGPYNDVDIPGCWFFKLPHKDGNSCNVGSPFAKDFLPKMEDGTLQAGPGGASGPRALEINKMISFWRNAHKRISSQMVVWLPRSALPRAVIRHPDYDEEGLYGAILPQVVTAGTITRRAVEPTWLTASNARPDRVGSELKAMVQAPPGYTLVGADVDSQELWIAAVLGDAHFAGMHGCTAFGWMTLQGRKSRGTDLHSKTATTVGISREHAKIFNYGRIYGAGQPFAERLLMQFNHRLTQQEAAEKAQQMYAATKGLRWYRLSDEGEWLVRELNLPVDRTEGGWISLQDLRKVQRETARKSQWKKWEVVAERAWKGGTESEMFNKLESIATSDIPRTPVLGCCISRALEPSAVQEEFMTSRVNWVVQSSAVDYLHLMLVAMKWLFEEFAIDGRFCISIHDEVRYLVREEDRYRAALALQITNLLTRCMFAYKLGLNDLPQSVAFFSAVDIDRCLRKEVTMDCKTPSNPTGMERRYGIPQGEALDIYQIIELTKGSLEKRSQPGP
Sequence (Q9UHN1 1-485 partner): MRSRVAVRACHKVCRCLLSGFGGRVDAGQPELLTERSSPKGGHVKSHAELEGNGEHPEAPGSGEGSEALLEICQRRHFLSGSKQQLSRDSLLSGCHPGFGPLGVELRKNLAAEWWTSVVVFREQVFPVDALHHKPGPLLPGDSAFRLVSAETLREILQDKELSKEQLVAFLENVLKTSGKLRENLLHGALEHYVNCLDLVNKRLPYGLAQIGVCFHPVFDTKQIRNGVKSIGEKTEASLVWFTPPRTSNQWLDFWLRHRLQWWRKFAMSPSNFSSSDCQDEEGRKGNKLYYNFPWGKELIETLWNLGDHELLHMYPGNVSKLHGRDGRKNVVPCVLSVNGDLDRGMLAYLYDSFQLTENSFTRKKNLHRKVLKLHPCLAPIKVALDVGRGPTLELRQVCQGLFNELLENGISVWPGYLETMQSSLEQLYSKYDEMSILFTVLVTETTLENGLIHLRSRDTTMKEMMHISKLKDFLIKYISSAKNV
Experiment: DNA polymerization assay, POLγA:R309C mutant
Assay type: biochemical
Conditions: stimulation of polymerase activity, primed M13mp18 ssDNA, 37° C. 2 hours
Answers are given as log10 of AC50 in µM.

Which log10 of AC50 value belongs to Cc1cc(S(=O)(=O)Nc2ccc3ccn(C(C)C)c3c2)c(C)cc1Cl [Example 69] ? 0.00

Which log10 of AC50 value belongs to Cc1cc(S(=O)(=O)Nc2cccc(-c3ccn(C)n3)c2)c(C)cc1Cl [Example 18] ? 0.70

Which log10 of AC50 value belongs to Cc1ccc(C)c(S(=O)(=O)Nc2cccc(C(=O)NCC3CC3)c2)c1 [Example 4] ? 1.40

Which log10 of AC50 value belongs to Cc1ccc(C)c(S(=O)(=O)Nc2cccc(C(=O)N[C@@H](C)C3CC3)c2)c1 [Example 8] ? 0.60

Which log10 of AC50 value belongs to Cc1cc(S(=O)(=O)Nc2cccc(-c3ncc(C4CC4)s3)c2)c(C)cc1Cl [Example 76] ? 0.78

Which log10 of AC50 value belongs to Cc1cc(S(=O)(=O)Nc2cccc(-c3nccs3)c2)c(C)cc1Cl [Example 16] ? 0.30

###

Target: POLγA:A467T (Homo sapiens, UniProt P54098, A467T)
Test: DNA polymerization assay, POLγA:A467T mutant
Assay type: biochemical
Conditions: stimulation of polymerase activity, primed M13mp18 ssDNA, 37° C. 2 hours; read-out: A467T AC50
Property: AC50

Examples with answers:
> print(dat)
                           substance.smiles  property    result
1  Cc1cc(S(=O)(=O)N[C@@H]2CCCN(C(=O)[C@@H]3CCCN3C)C2)c(C)cc1Cl      AC50  > 100 µM
2  Cc1ccc(C)c(S(=O)(=O)Nc2cccc(C(=O)N3CCCC[C@@H]3C)c2)c1      AC50     95 µM
3  Cc1cc(S(=O)(=O)Nc2csc(-c3ccccc3)n2)c(C)cc1Cl      AC50      3 µM
4  O=S(=O)(Nc1csc(-c2ccccc2)n1)c1cccc(C(F)(F)F)c1      AC50  > 100 µM
5  Cc1cc(S(=O)(=O)Nc2cccc(C(=O)N3CCCC3)c2)c(C)cc1Cl      AC50  > 100 µM

Query AC50 on POLγA:A467T (Homo sapiens, UniProt P54098, A467T) for Cc1cc(S(=O)(=O)Nc2nc(-c3ccccc3)n(C)n2)c(C)cc1Cl > 10 µM

Query AC50 on POLγA:A467T (Homo sapiens, UniProt P54098, A467T) for Cc1ccc(C)c(S(=O)(=O)Nc2cccc(C(=O)N(C)C)c2)c1 > 100 µM
